Test system: SK-MEL-28 melanoma
experiment: NCI tumour cell line growth inhibition, 48 h
This section presents compounds with their documented TGI values.

compound	TGI
CC(C)CCCC(C)[C@H]1CCC2C3CC=C4C[C@@H](OC(=O)CC(CC(=O)[O-])C(=O)[O-])CC[C@]4(C)C3CC[C@@]21C.N.N.[Pt+4] (stereo not given in full)	> 100 µM
N#CC(C#N)=C(N)/C(C#N)=C/c1ccc(O)c(O)c1	> 100 µM
C=CC(=O)OCCCS(=O)(=O)[O-].C=CC(=O)OCCCS(=O)(=O)[O-].NC1CCCCC1N.[Pt+4]	> 25 µM
CNc1ccc(Cl)cc1C(=O)N1CCC[C@H]1CO	> 100 µM

We next turn to a different compound, shown below.
Exam item: For the compound CC(C)=CC1(C)/C(=N\O)C(C)(CC(C)C)C(=O)N1O (stereo not given) , report TGI.
Marked response: > 100 µM

FYI, the data here is from PubChem BioAssay (NCI).
